The entries below are paired with their reported growth inhibition.
Assay: NCI Yeast Anticancer Drug Screen. Data for the mlh1 rad18 strain (AID 175)
Details: S. cerevisiae mlh1 rad18 strain growth inhibition; at 50.0 µM (retest, dose inferred, filed as 5.0); hits give high values
The panel holds about 79,000 compounds, 15% with a hit somewhere; the sample as a whole holds those more often.

# molecule, growth inhibition (%)
rows = [
    ("CC(=O)c1c(O)c2ccc(Cl)cc2[nH]c1=O", 94),
    ("O=C1c2sccc2-c2cccc3cccc1c23 (tested in a mixture with another compound)", 98),
    ("COc1cc(C(c2cc3c(cc2OC(C)=O)OCO3)C(C(C)=O)C(C)=O)cc(OC)c1OC(C)=O (centres undefined)", 11),
    ("COc1ccc(-c2nc(N)n(C)c2SSc2c(-c3ccc(OC)cc3)nc(N)n2C)cc1", 28),
    ("Cc1[nH]nc(C(=O)N(C)C)c1N=NN(C)C", 90),
    ("C/C=C/C1=C(Cl)C(=O)[C@@H](Cl)[C@@]1(O)C(=O)OC", 99),
    ("CN(C)c1ccc(C(c2ccc(N(C)C)cc2)c2ccc3c(c2)OCO3)cc1", 90),
    ("COc1ccc(/C(=N\\Nc2ccc(Br)cc2)c2ccccc2/C(=N/Nc2ccc(Br)cc2)c2ccccc2OC)cc1", 33),
    ("COC(=O)C1(c2ccc(N(C)C)cc2OC)CCCN(C(=O)Oc2ccccc2[N+](=O)[O-])CCc2c1[nH]c1ccccc21 (centres undefined)", 88),
]

* * *

Assay: NCI Yeast Anticancer Drug Screen. Data for the mlh1 rad18 strain (AID 175)
Settings: S. cerevisiae mlh1 rad18 strain growth inhibition; at 50.0 µM; hits give high values
Procedure: Growth inhibition of yeast strains with defined genetic alterations is measured as a screen for potential anti-cancer activity. Selected strains with alterations in DNA damage repair or cell cycle control were exposed to compounds and growth inhibition was measured relative to vehicle treated controls. The strain used in this assay is mlh1 rad18
Compounds without any hit were thinned out: in the full panel of roughly 79,000, 15% have a hit.
endpoint: growth inhibition (%)

# compound, endpoint, units, reading
data = [
    ("NC(=O)C(=CNc1nc(-c2ccc(Br)cc2)cs1)C(N)=O", "growth inhibition", "%", 99.3),
    ("Cc1cc(Cl)ccc1Nc1sc(C(=O)c2cc3cc(Cl)ccc3o2)c(N)c1C#N", "growth inhibition", "%", 36.5),
    ("CC(O[Si](c1ccccc1)(c1ccccc1)C(C)(C)C)[C@H](NC(=O)OC(C)(C)C)C(=O)O[Si](c1ccccc1)(c1ccccc1)C(C)(C)C (stereo not given in full)", "growth inhibition", "%", 89),
    ("N#CC=Cc1ccc([N+](=O)[O-])s1 (mixture of isomers)", "growth inhibition", "%", 91.1),
    ("Cc1cc(Oc2nc(Cl)nc(C(Cl)(Cl)Cl)c2Cl)cc(C)c1N(C)C (tested in a mixture with another compound)", "growth inhibition", "%", 95.7),
    ("O=C1/C(=C\\c2ccccc2)C(NC2CCCCC2)c2ccccc21 (stereo not given)", "growth inhibition", "%", 99.5),
    ("O=C(OCCN=c1c2ccccc2ccc2ccccc12)c1ccccc1", "growth inhibition", "%", 15.7),
    ("O=C1OC(C2OC(=O)C(=O)C2C(=O)c2ccc(Cl)c(Cl)c2)C(C(=O)c2ccc(Cl)c(Cl)c2)C1=O (stereo not given)", "growth inhibition", "%", 96.2),
    ("O=c1[nH]c2c([N+](=O)[O-])cc(Cl)cc2nc1/C=C(\\O)c1ccc2ccccc2c1", "growth inhibition", "%", 71.5),
    ("CCc1ccc(/C=C/c2ccc([N+](=O)[O-])cc2)nc1", "growth inhibition", "%", 69.5),
    ("CCCCCCCCCCCC(=O)N(CCOC(=O)c1ccco1)CCOC(=O)c1ccco1", "growth inhibition", "%", 98.8),
    ("CCc1cc(C)cc(NC(=O)OC2CCCCC2C)c1 (stereo not given)", "growth inhibition", "%", 90.4),
    ("CCOC(=O)Nc1cc(NC(C)/C(=N/O)c2ccccc2)c([N+](=O)[O-])c(N)n1 (stereo not given)", "growth inhibition", "%", 44.2),
    ("Nc1ccc(C(=O)Nc2ccc(C(=O)Nc3ccc(/C=C/c4ccc(NC(=O)c5ccc(N)cc5)cc4S(=O)(=O)O)c(S(=O)(=O)O)c3)cc2)cc1", "growth inhibition", "%", 74.2),
    ("CC(NCCO)c1ccc2ccccc2c1 (stereo not given)", "growth inhibition", "%", -3.8),
    ("CCCCCCC(OCCC)OCCC", "growth inhibition", "%", 38.4),
    ("CN(C)CCC(=O)N1C/C(=C\\c2ccc(Cl)c(Cl)c2)C(=O)/C(=C/c2ccc(Cl)c(Cl)c2)C1", "growth inhibition", "%", 88.9),
    ("CCCCCCCCCCCCCCCCNC(C)c1ccccc1 (stereo not given)", "growth inhibition", "%", 98.3),
    ("CC1(C)OC2C(COC(c3ccccc3)(c3ccccc3)c3ccccc3)OC(n3cnc4c(N)ncnc43)C2O1 (stereo not given)", "growth inhibition", "%", 58.5),
    ("O/N=C1/C(=C/c2ccc3c(c2)OCO3)CCCC1C(NO)c1ccc2c(c1)OCO2 (stereo not given)", "growth inhibition", "%", 97.4),
]

* * *

Test: NCI Yeast Anticancer Drug Screen. Data for the sgs1 mgt1 strain (AID 161);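 further: 0% = growth of cultures given vehicle only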
Conditions: S. cerevisiae sgs1 mgt1 strain, at 50.0 µM, hits give high values
About 79,000 compounds went through this panel and 15% of them were active in at least one assay; those are over-represented in the sample as a whole.

# compound, units, growth inhibition
rows = [
    ("FC(F)(F)c1[nH]nc(-c2ccc(Cl)cc2)c1N=NN1CCOCC1", "%", 95.4),
    ("COC(=O)C(=O)C(=O)C1CCCC(c2ccccc2)C1=O (stereo unspecified)", "%", 71.6),
    ("O=[N+]([O-])c1cc([N+](=O)[O-])c2ccccc2c1O", "%", 88.8),
    ("CC(C)C(OC(=O)c1ccc(NCC2=CC(=O)C=CC2=O)cc1)C(C)C", "%", 73),
    ("CN1CCCC1c1cccc(Br)c1 (stereo unspecified)", "%", 21.6),
    ("CCOC(=O)/C=C(\\NC1CC(OC2C[C@](O)(C(C)=O)Cc3c(O)c4c(c(O)c32)C(=O)c2c(OC)cccc2C4=O)OC(C)C1O)C(=O)OCC (stereo partly specified)", "%", 90.5),
    ("Cc1ccc(C(=O)/C=C/c2ccco2)c(C)c1", "%", 63.8),
    ("Cc1cccc(NC(=O)CCc2ccc(Cl)cc2)n1", "%", 0.2),
    ("OC1(c2ccccc2)c2ccccc2C(O)(c2ccccc2)c2cc3c(cc21)CCCC3 (stereo unspecified)", "%", 97.7),
    ("COc1cccc(C2CC(C)(O)Oc3cc4c(cc32)OCO4)c1 (stereo unspecified)", "%", 29.4),
    ("Cc1cccc(N2CCN(CC(O)COc3ccc4ccccc4c3)CC2)c1 (stereo unspecified)", "%", 97.7),
]

* * *

Assay: NCI Yeast Anticancer Drug Screen. Data for the sgs1 mgt1 strain (AID 161);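 further: 0% = growth of cultures given vehicle only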
Settings: S. cerevisiae sgs1 mgt1 strain, at 5.0 µM (retest, dose inferred, filed as 0.5)
About 79,000 compounds went through this panel and 15% of them were active in at least one assay; those are over-represented in the sample as a whole. Activity calls are given as the source filed them. Rule as the data show it: active = growth inhibition above about 70%; inactive = the rest.
Classes used: active, inactive

# compound, class-label
records = [
    ("CC[N+](C)(CC)CCCOC(=O)c1ccccc1Oc1ccc(C)cc1", "inactive"),
    ("Cc1ccc(-c2c(N)[n+]([O-])c3ccccc3[n+]2[O-])cc1", "inactive"),
    ("COc1ccc(C2Oc3ccc(Cl)cc3C=C2[N+](=O)[O-])cc1 (stereo unspecified)", "active"),
    ("CCOc1ccc2c(c1)nc1cc(Cl)ccc1[n+]2C", "inactive"),
    ("CCN1CCC(O)(/C=C/c2ccccc2C)C(C(=O)/C=C/c2ccccc2C)C1 (stereo unspecified)", "inactive"),
    ("Cc1ccc(NC(=O)CC2SC(=Nc3ccc(Cl)cc3)NC2=O)cc1C (stereo unspecified)", "inactive"),
]

* * *

Test: NCI Yeast Anticancer Drug Screen. Data for the sgs1 mgt1 strain (AID 161);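 further: 0% = growth of cultures given vehicle only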
Conditions: S. cerevisiae sgs1 mgt1 strain, at 50.0 µM, hits give high values
Compounds without any hit were thinned out: in the full panel of roughly 79,000, 15% have a hit.
Listed next: entries and their corresponding growth inhibition.

# compound, growth inhibition / %
records = [
    ("CCC(C)SC1SCC2C(=O)N(C)C3(CC3C)C(=O)OCC(NC(=O)c3nc4ccccc4cc3O)C(=O)NC(C)C(=O)N(C)C1C(=O)N(C)C1(CC1C)C(=O)OCC(NC(=O)c1nc3ccccc3cc1O)C(=O)NC(C)C(=O)N2C (stereo not given)", 92.4),
    ("Nc1ccc2c(c1)CN1C(=O)c3ccccc3C1=N2", 5.55),
    ("CN1C(=O)c2cccc3c([N+](=O)[O-])ccc(c23)C1=O", 73.2),
    ("O=C(O)CCCCCCCCCC[S+](CCO)CCO", 62.1),
    ("O=c1c2cc3c(cc2c2cccc4c2n1CCC4)OCO3", 25.4),
    ("Cc1cc(N/N=C/c2ccc([N+](=O)[O-])o2)c2cc3c(cc2n1)OCO3", 97.5),
    ("CCOCCNCc1ccc(Cl)c(Cl)c1", 2.7),
    ("Cc1[nH]c2ccccc2c1/C=C1/CCCCCCC1=O", 96.5),
    ("ClCCOCCOc1c(Cl)cc(Cl)c(Cl)c1Cl", 43.5),
    ("O=[N+]([O-])c1c(Cl)ccc2nsnc12", 98.8),
]

Data credit: PubChem BioAssay (NCI)
